measured_target: biotinylated human IL-17A / AF647-labeled human IL-17RA (Homo sapiens, UniProt Q16552)
Sequence (Q16552 24-155): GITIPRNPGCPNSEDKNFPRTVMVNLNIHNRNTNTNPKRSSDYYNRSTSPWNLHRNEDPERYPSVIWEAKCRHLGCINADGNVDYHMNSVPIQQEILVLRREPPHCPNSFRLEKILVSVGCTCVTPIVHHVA
assay: Human IL-17A×IL-17RA TR-FRET assay
Assay type: binding
condition_parameters: TR-FRET, 5 nM IL-17A, 30 nM IL-17RA; read-out: IL17AA FRET/ IL17Rawt IC50
experimental_readout: pIC50
On this scale, pIC50 is minus log10 of a concentration expressed in M (mol/L).

Look over these answered cases.
QUERY: # return pIC50 for "Cc1nocc1C(=O)N[C@H](C(=O)Nc1ccc(-c2cc(Cl)c[n+]([O-])c2C)cc1)C1CCC(F)(F)CC1" , test system: biotinylated human IL-17A / AF647-labeled human IL-17RA (Homo sapiens, UniProt Q16552)
RESULT: 6.18

QUERY: # return pIC50 for "Cc1c(-c2ccc(NC(=O)[C@@H](NC(=O)c3ccc4n3CCN(C)C4)[C@H]3CCCC(F)(F)C3)cc2)c(C(F)(F)F)cc[n+]1[O-]" , test system: biotinylated human IL-17A / AF647-labeled human IL-17RA (Homo sapiens, UniProt Q16552)
RESULT: 6.45

QUERY: # return pIC50 for "Cc1cc[n+]([O-])c(C)c1-c1ccc(NC(=O)[C@@H](NC(=O)c2cnn(C)c2C)C2CCCCC2)cc1" , test system: biotinylated human IL-17A / AF647-labeled human IL-17RA (Homo sapiens, UniProt Q16552)
RESULT: 6.81

QUERY: # return pIC50 for Cc1cc[n+]([O-])c(C)c1-c1ccc(NC(=O)[C@@H](NC(=O)c2ccc3n2CCNC3)C(C)c2ccccc2Cl)cc1 (stereo partly drawn) , test system: biotinylated human IL-17A / AF647-labeled human IL-17RA (Homo sapiens, UniProt Q16552)
RESULT: 6.10

QUERY: # return pIC50 for Cc1cc[n+]([O-])c(C)c1-c1ccc(NC(=O)C(NC(=O)c2ccc3n2CCNC3)C2CC3CC3C2)cc1 (stereo not drawn) [Example 201] , test system: biotinylated human IL-17A / AF647-labeled human IL-17RA (Homo sapiens, UniProt Q16552)
RESULT: 6.60

Now turn to the next compound.
QUERY: # return pIC50 for Cc1nocc1C(=O)NC(C(=O)Nc1ccc(-c2c(Cl)cc[n+]([O-])c2C)cc1)C1CC2CC2C1 (single isomer, unassigned) [Example 181] , test system: biotinylated human IL-17A / AF647-labeled human IL-17RA (Homo sapiens, UniProt Q16552)
RESULT: 7.26
